# Test system: NCI-H460
# Protocol description: NCI 60 cell-line test
# Format: cell-based, human
# Settings: NCI-H460 (Non-Small Cell Lung Cancer); read-out: LC50 (the source's name)
Value type: CC50

>>> measured("CC1(C)C2CC[C@@]1(CS(=O)(=O)N(C1CCCCC1)C1CCCCC1)C(O)C2 (stereo partly shown) [MT103]")
"> 100 µM"

* * *

# Test system: NCI-H23
# Protocol description: NCI 60 cell-line test
# Type: cell-based, human
# Settings: NCI-H23 (Non-Small Cell Lung Cancer); read-out: LC50 (the source's name)
Value type: CC50

>>> measured("CC1(C)C2CC[C@@]1(CS(=O)(=O)N(C1CCCCC1)C1CCCCC1)C(O)C2 (stereo partly shown)")
"> 100 µM"
